Assay: fluconazole-exposed Candida albicans growth modulators – fluorescence, retest, confirmation (AID 2467)
Format: functional, cell-based
Calls of active or inactive are those of the source.
Examples of compounds with documented EC50 follow.

>  <Input smiles>
COc1cccc(/C=N/NC(=O)c2c(C)nc3ccc(Cl)cn23)c1O

>  <EC50>
1.36 µM (active)

$$$$
>  <Input smiles>
Nc1nnnn1/N=C/c1cccc(Oc2ccccc2)c1

>  <EC50>
> 38 µM (not active)

$$$$
>  <Input smiles>
CC[C@@H]1C=CC=CC[C@H](C)[C@@H](O)[C@@H](C)C(=O)[C@H](C)[C@@H](O)[C@H](C)C(=O)[C@H](C)[C@@H](O)[C@H](C)C=CC(=O)O[C@H]2[C@@H](C)[C@@H](CC1)O[C@@]1(CC[C@@H](C)[C@@H](C[C@H](C)O)O1)[C@@H]2C

>  <EC50>
0.427 µM (active)

$$$$
>  <Input smiles>
O=C(NNC(=S)NC(=O)c1ccccc1[N+](=O)[O-])c1ccc(Cl)cc1Cl

>  <EC50>
4.09 µM (active)

$$$$

====

Examples of compounds with documented IC50 follow.
Biological target: Ubiquitin-conjugating enzyme E2 N (Homo sapiens);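 further: Dose-response confirmation in a TR-FRET assay detecting UBC13-driven polyubiquitin chain formation, inhibition measured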
Sequence (P61088 whole entry): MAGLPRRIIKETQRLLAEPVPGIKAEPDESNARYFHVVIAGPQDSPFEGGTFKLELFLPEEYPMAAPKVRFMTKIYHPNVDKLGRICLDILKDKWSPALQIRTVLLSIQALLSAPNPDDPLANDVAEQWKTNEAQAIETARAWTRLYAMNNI
Type: functional
The source made the active and inactive calls.
Measured attribute: IC50

>  <Compound>
CC(C)Cn1cc(C(=O)NC2CCN(Cc3ccccc3)CC2)c2c3ccccc3n(C)c2c1=O

>  <Measured attribute>
IC50

>  <Endpoint result>
> 20 µM (inactive)

$$$$
>  <Compound>
CC1CCN(CCCNC(=O)c2ccc3c(=O)n(Cc4ccc(Cl)cc4)c(=S)[nH]c3c2)CC1

>  <Measured attribute>
IC50

>  <Endpoint result>
> 20 µM (inactive)

$$$$
>  <Compound>
O=C(c1ccc(S(=O)(=O)N2CCCC2)cc1)N1CCC(CN2C(=O)c3cccc4cccc(c34)C2=O)CC1

>  <Measured attribute>
IC50

>  <Endpoint result>
6.28 µM (active)

$$$$
>  <Compound>
Cc1cc(C)c2sc(N(CCCN(C)C)C(=O)c3ccc(S(=O)(=O)N4CCc5ccccc5C4)cc3)nc2c1

>  <Measured attribute>
IC50

>  <Endpoint result>
10 µM (active)

$$$$
>  <Compound>
O=C(CSCc1ccc([N+](=O)[O-])cc1)N/N=C/c1ccncc1

>  <Measured attribute>
IC50

>  <Endpoint result>
17.3 µM (active)

$$$$
>  <Compound>
CCn1c(O)c(N=NC(S)=NCC2CCCO2)c2ccccc21 (stereo not drawn)

>  <Measured attribute>
IC50

>  <Endpoint result>
> 20 µM (inactive)

$$$$
>  <Compound>
CCCC[C@@H](CNC)NC[C@H](NCCCCC1CCCCC1)C(C)C

>  <Measured attribute>
IC50

>  <Endpoint result>
> 20 µM (inactive)

$$$$
>  <Compound>
CCc1ccc(N(C(=O)c2snc(C(N)=O)c2N)C(C(=O)NC2CCCC2)c2ccco2)cc1 (stereo not drawn)

>  <Measured attribute>
IC50

>  <Endpoint result>
> 20 µM (inactive)

$$$$

====

Target: Paired box protein Pax-8 (Homo sapiens)
Sequence (Q06710 whole entry): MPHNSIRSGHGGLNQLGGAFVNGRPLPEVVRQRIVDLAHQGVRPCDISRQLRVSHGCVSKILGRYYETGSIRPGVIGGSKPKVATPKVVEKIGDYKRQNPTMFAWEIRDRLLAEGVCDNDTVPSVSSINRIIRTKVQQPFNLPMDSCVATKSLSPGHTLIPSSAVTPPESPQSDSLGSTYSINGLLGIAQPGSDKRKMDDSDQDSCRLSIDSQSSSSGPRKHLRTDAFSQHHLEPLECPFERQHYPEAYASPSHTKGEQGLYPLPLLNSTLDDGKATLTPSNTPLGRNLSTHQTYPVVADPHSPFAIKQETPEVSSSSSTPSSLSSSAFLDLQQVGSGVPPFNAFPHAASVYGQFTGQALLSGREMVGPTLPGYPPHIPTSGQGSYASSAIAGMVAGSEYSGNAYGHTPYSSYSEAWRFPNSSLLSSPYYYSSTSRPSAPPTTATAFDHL
Assay: PAX8 transcriptional activity inhibition in RMG-I – RMG-I cells, luciferase, cherry-pick, dose response (AID 687027);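 further: luciferase reporter driven by Pax8 target thyroperoxidase promoter measured by SteadyGlo luminescence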
Format: functional, cell-based
Activity calls are given as the source filed them.
Examples of compounds with documented AC50 follow.

>  <Compound>
COc1ccc(C(C(=O)NC2CCCCC2)N(C(=O)CCl)c2cccc(Cl)c2)cc1 (configuration not stated)

>  <AC50>
< 0.5 µM (active)

$$$$
>  <Compound>
COC(=O)[C@@]12C[C@@H](CC(=O)N3CCN(C(=O)c4ccco4)CC3)C(=O)N(Cc3ccco3)C1=CCC(C)(C)C2

>  <AC50>
2.44 µM (active)

$$$$
>  <Compound>
C[C@H](CO)N1C[C@H](C)[C@H](CN(C)Cc2ccc(Cl)c(Cl)c2)OCCCC[C@H](C)Oc2ccc(NC(=O)Nc3ccc(C(F)(F)F)cc3)cc2C1=O

>  <AC50>
5.3 µM (active)

$$$$
>  <Compound>
Cc1cccc(/C=C(\c2nc3ccccc3[nH]2)S(=O)(=O)c2ccccc2)c1

>  <AC50>
4.1 µM (active)

$$$$
>  <Compound>
Cc1ccc(S(=O)(=O)Nc2ccc3c(c2)C(=O)N([C@@H](C)CO)C[C@@H](C)[C@H](CN(C)Cc2ccc(C(F)(F)F)cc2)OCCCC[C@@H](C)O3)cc1

>  <AC50>
8.98 µM (active)

$$$$
>  <Compound>
CCN1CCN(Cc2ccc(NC(=O)c3cc(NC(=O)C(=O)c4c[nH]c5ccccc45)cc(OC)c3)cc2C(F)(F)F)CC1

>  <AC50>
8.98 µM (active)

$$$$
>  <Compound>
Cc1noc(C)c1NC(=O)Nc1cccc2c1O[C@H](CN(C)Cc1ccc(C(F)(F)F)cc1)[C@H](C)CN([C@@H](C)CO)C2=O

>  <AC50>
27.5 µM (active)

$$$$
>  <Compound>
O=C(Nc1ccc(C(F)(F)F)cc1)N1C[C@@H]2N[C@H](C1)[C@H]2c1ccc(-c2ccccc2)cc1

>  <AC50>
8.55 µM (active)

$$$$
>  <Compound>
C[C@H](CO)N1C[C@H](C)[C@H](CN(C)CC2CCCCC2)OCCCC[C@H](C)Oc2ccc(NC(=O)Nc3ccccc3)cc2C1=O

>  <AC50>
14.2 µM (active)

$$$$
>  <Compound>
C[C@@H]1CN([C@@H](C)CO)C(=O)c2cc(NC(=O)c3ccccc3)ccc2O[C@@H](C)CCCCO[C@@H]1CN(C)Cc1ccc(C(F)(F)F)cc1

>  <AC50>
9.74 µM (active)

$$$$
>  <Compound>
C[C@H](CO)N1C[C@H](C)[C@@H](CN(C)S(=O)(=O)c2ccc(F)cc2)OCCCC[C@H](C)Oc2ccc(NS(=O)(=O)c3ccc(Cl)cc3)cc2C1=O

>  <AC50>
4.97 µM (active)

$$$$
>  <Compound>
C[C@@H]1CCCCO[C@@H](CN(C)S(=O)(=O)c2ccc(Cl)cc2)[C@H](C)CN([C@@H](C)CO)C(=O)c2cc(NS(=O)(=O)c3ccc(Cl)cc3)ccc2O1

>  <AC50>
2.78 µM (active)

$$$$

All values here come from ChEMBL document CHEMBL1201862.
